- Test system: HCT116 Human Colon Carcinoma
- Measurement notes: Human tumor cell CFU assay (Test B)
- Format: cell-based
- Settings: Homo sapiens, HCT-116; colony formation, continuous exposure 7-9 days; read-out: IC90 Values (95% Lower and Upper Confidence Intervals)
Threshold 3 nM. IC90 below it: Fulfilled. IC90 at it or above: Not fulfilled.

As a guide, the following entries are already answered.
INSERT INTO results (compound, cat) VALUES
  ('COc1cc2c(=O)n(CCN(C)C(C)C)c3c4cc5c(cc4ncc3c2cc1OC)OCO5', 'Not fulfilled'),
  ('COc1cc2c(C(=O)NCC(C)(C)N(C)C)cc3c4cc5c(cc4ncc3c2cc1OC)OCO5', 'Fulfilled'),
  ('CC[C@@]1(O)C(=O)OCc2c1cc1n(c2=O)Cc2cc3c(CN(C)C)c(O)ccc3nc2-1 [Topotecan, reference compound]', 'Not fulfilled'),
  ('CNCCn1c(=O)c2cc(OC)c(OC)cc2c2cnc3cc4c(cc3c21)OCO4', 'Fulfilled');

# input for lookup
Find out if reported IC90 for COc1cc2c(=O)n(CCN(C)C)c3c4cc5c(cc4ncc3c2cc1OC)OCO5 is less than 3 nM Not fulfilled
